The values you see were collected from BigSolDB 2.1.

- condition: in DMSO, 313.2 K
measure_name: solubility (mole fraction)
Answer as a number with no unit attached.

[ask] // returns reported solubility (mole fraction) for input O=C(O)c1ccccc1Nc1cccc(C(F)(F)F)c1
[reply] 0.27

* * *

- condition: in ethylene glycol, 303.2 K
measure_name: solubility (mole fraction)
Answer as a number with no unit attached.

[ask] // returns reported solubility (mole fraction) for input O=C(O)c1ccccc1Nc1cccc(C(F)(F)F)c1
[reply] 0.00856

* * *

- condition: in isopropanol, 303.2 K
measure_name: solubility (mole fraction)
Answer as a number with no unit attached.

[ask] // returns reported solubility (mole fraction) for input O=C(O)c1ccccc1Nc1cccc(C(F)(F)F)c1
[reply] 0.105
